Just for reference, patent US20210395718A1 is where these values come from.

# ASSAY_PROCEDURE: Thermal stability: residual activity after incubation at 60° C. for one hour
# Type: biochemical
# CONDITION: crude recombinant enzyme; after incubation at 60° C. for 1 hour

# MOLECULE, Residual activity (%)
records = [
    ("Ketose 3-epimerase mutant 9: amino acid-substituted mutant of SEQ ID NO: 1 (protein, Arthrobacter histidinolovorans) MKIGCHGLVWTGRFDAEGIRYSVQKTKEAGFDLIEFPLMDPFSFDVATAKSALAEHGLSVSASLGLSEATDVSSEDPAIVKAGEELLNRALDVLAELGATDFCGVIYSAMKKYMEPATEQGLSNSKAAVGRVVDRAAGLGINVSLEVVNRYETNVLNTGRQALSYLSDVKRPNLGVHLDTYHMNIEESDMFSPVLDTAEALKYVHIGESHRGYLGTGSVDFDNFFKALGRIGYDGPVVFESFSSAVVAPDLSRMLGIWRNLWADNEELGAHANAFIRDKLTAIKTIELH", 65.6),
]
